meta.source: patent US20190060428A1

Listing of entries alongside the reported % Purity.
- Method summary: Short-term room temperature stability of Pool 3 mixed with Hiltonol (RP-HPLC)
- Type: physicochemical
- Study conditions: T0 Pool 3 + Hiltonol, RP-HPLC
- Method: A peptide pool (Pool 3) consisting of the five peptides shown in Table 6 below was prepared by dissolution in DMSO and dilution with D5W/Succinate (2 mM) to 2 mg/ml and pooling to a final peptide concentration of 400 μg per ml and a final DMSO concentration of 4%. […] Three samples were prepared by mixing 0.75 ml of Pool3 with 0.25 ml Hiltonol® as planned for the dosage form preparation. The samples were then left at room temperature for 0, 4 and 6 hours and analyzed by RP-HPLC (Table 7). […]
Lab book: enter the figure in %, no units written.

Sample records with % Purity:
[[record]]
substance = "H-AHRQGEKQHLLPVFSRLALRLPWRHSVQL-OH [CS6941]"
measured_parameter = "% Purity"
reported_value = 100

[[record]]
substance = "H-KLAWRGRISSSGCPSMTSPPSPMFGMTLHT-OH [CS6919]"
measured_parameter = "% Purity"
reported_value = 86.1


Shifting focus to the substance that follows.
So, H-VAGLAASGLHGSAWLVPGEQPVSGPHHGKQ-OH [CS6931] ? Its % Purity was 97.84

* * *

- Method summary: pH of peptide solutions in DMSO/D5W, with succinate, and with Hiltonol
- Format: physicochemical
Measured parameter: pH of peptides in DMSO/D5W/5mM S. Succinate spike
Give the value as a plain number.

[[record]]
substance = "H-WDGPPENDMLLKEICGSLIP-OH [CS7432]"
reported_value = 6.22

[[record]]
substance = "H-LLTDRNTSGTTFTLLGVSDYPELQVP-OH [CS7409]"
reported_value = 6.32

[[record]]
substance = "H-VEQGHVRVGPDVVTHPAFLV-OH [CS7427]"
reported_value = 6.34


So, H-AESAQRQGPNGGGEQSANEF-OH [CS7416] ? Its pH of peptides in DMSO/D5W/5mM S. Succinate spike was 6.31

So, H-DSAVDKGHPNRSALSLTPGLRIGPSGLFLVFLA-OH [CS7411] ? Its pH of peptides in DMSO/D5W/5mM S. Succinate spike was 6.53

So, H-SKRGVGAKTLLLPDPFLFWPCLEGTRRSL-OH [CS6934] ? Its pH of peptides in DMSO/D5W/5mM S. Succinate spike was 6.57

So, H-GTKALQLHSIAGRWPRMEPWVVESMSLGVP-OH [CS7415] ? Its pH of peptides in DMSO/D5W/5mM S. Succinate spike was 6.61

So, H-KGASLDAGWGSPRWTTTRMTSASAGRSTRA-OH [CS7414] ? Its pH of peptides in DMSO/D5W/5mM S. Succinate spike was 6.71

* * *

- Method summary: physchem
- Study conditions: pH 6
Measured parameter: solubility

[[record]]
substance = "H-HLLQKQTSIQSPSLYGNSSPPLNK-OH"
reported_value = "> 2000 µg/mL"

[[record]]
substance = "H-SGSPPLRVSVGDFSQEFSPIQEAQQD-OH"
reported_value = "> 2000 µg/mL"

[[record]]
substance = "H-RGQIKLADFRLARLYSSEESR-OH"
reported_value = "> 2000 µg/mL"

[[record]]
substance = "H-VPDINMEKKLRKIRAQTQKHLDLYARDG-OH"
reported_value = "> 2000 µg/mL"

[[record]]
substance = "H-DATFSDGSLGQLVKNTSATYALS-OH"
reported_value = "> 2000 µg/mL"

[[record]]
substance = "H-MSQDIKKADEQIESMTYSTERKT-OH"
reported_value = "> 2000 µg/mL"


So, H-FLLQVPGSPVVSPSA-OH ? Its solubility was > 2000 µg/mL

So, H-TLDDIKEWLEDEGQVLNIQMRRTLHK-OH ? Its solubility was < 2000 µg/mL

So, H-SGQPAPEETVLFLGLLHGLLLILRRLRGG-OH ? Its solubility was < 2000 µg/mL

So, H-GLTRISIQRAQPLPPCLPSFRPPTALQGLS-OH ? Its solubility was > 2000 µg/mL

So, H-ISSLFVSYFLYRVVFHFE-OH ? Its solubility was < 2000 µg/mL

So, H-PGGDSGELITDAHELGVAHPPGY-OH ? Its solubility was > 2000 µg/mL
